- Tested on: serum 2 (individual 2)
- Format: binding, human
What Binding of serum 2 to linear peptides of Orf14 of SARS-CoV TOR2 was measured for each of the following?
Give bare numbers.

Consider the following illustrative entries.
MLPPCYNFLKEQHCQ 0.3
YNFLKEQHCQKASTQ 0.5
REAEAAVKPLLAPHH 0.4
HHVVAVIQEIQLLAA 0.4
LKEQHCQKASTQREA 0.4
EAAVKPLLAPHHVVA 0.7

For the 3 sequences below, give their Binding of serum 2 to linear peptides of Orf14 of SARS-CoV TOR2 values.
1. AAVKPLLAPHHVVAV
2. PPCYNFLKEQHCQKA
3. AEAAVKPLLAPHHVV

Marked response:
[1.0, 0.1, 1.3]

These measurements were taken from patent US20060154243A1.
